Experiment: Single ascending dose (SAD) pharmacokinetics in healthy volunteers
Format: in vivo, human
Conditions: human, plasma, po, 600 mg, single oral dose 600 mg, plasma; read-out: Cmax, geometric mean (Geo CV%)
recorded-metric: Cmax (ng/mL)
Give your result in ng/mL as a bare value.

# query: Cmax of entry CC(=O)N1CCC(COc2cc(F)c3c(=O)[nH]c(CSC4CCOCC4)nc3c2)CC1
1200

----------
Experiment: Multiple ascending dose (MAD) pharmacokinetics in healthy volunteers, BID for 14 days
Assay type: in vivo, human
Details: human, plasma, oral, 500 mg, 500 mg BID, Day 14, plasma; read-out: Cmax, mean (SD)
recorded-metric: Cmax (ng/mL)
Write it as a number; the unit ng/mL goes unstated.

Looking for the measured Cmax of CC(=O)N1CCC(COc2cc(F)c3c(=O)[nH]c(CSC4CCOCC4)nc3c2)CC1 , can you help?
1880

Reference for the values: paper PMC12209991
